From: patent US6939896B2

# reported pIC50; entries follow
TARGET_UNDER_TEST: CD45 (Homo sapiens)
Construct: incubating the cytosolic portion of CD45 with the compounds and p-nitrophenyl phosphate (pNPP); purchased BIOMOL (Plymouth Meeting, Pa.)
PROTOCOL_DETAILS: Phosphatase assay using lck 10-mer as substrate
Type: biochemical
PARTICULARS: lck carboxy-terminal peptide TEGQpYQPQP substrate, pH 7.2, 5% DMSO, read-out: Ick IC50
pIC50: −log10 of the molar value.

# example entries with known answers
compound="O=C1C=C(Br)c2ccccc2C1=O [Example 6, 4-Bromo-[1,2]naphthoquinone]" test_value="< 4.52"
compound="COC(=O)c1ccc2c(c1)C=CC(=O)C2=O [Example 17]" test_value="< 4.52"
compound="O=C1C=C(Cl)c2ccccc2C1=O [Example 5, 4-Chloro-[1,2]naphthoquinone]" test_value="< 4.52"
compound="O=C1C=C(c2cccc([N+](=O)[O-])c2)c2ccccc2C1=O [Example 14, 4-(3-Nitro-phenyl)-[1,2]naphthoquinone]" test_value="< 4.52"
compound="O=C1C=Cc2cc(C(=O)c3ccccc3)ccc2C1=O [Example 15, 6-Benzoyl-[1,2]naphthoquinone]" test_value="< 4.52"
compound="COC1=CC(=O)C(=O)c2ccccc21 [Example 3, 4-Methoxy-[1,2]naphthoquinone]" test_value=5.38
compound="COC(=O)c1cccc2c1C=CC(=O)C2=O [Example 16]" test_value="< 4.52"
compound="O=C1C=C(c2ccccc2)c2ccccc2C1=O [Example 11, 4-Phenyl-[1,2]naphthoquinone]" test_value="< 4.52"

Query compound follows.
*Q* Supply pIC50 value. Item: C=CCOC1=CC(=O)C(=O)c2ccccc21 [Example 4, 4-Allyloxy-[1,2]naphthoquinone]
*A* 5.31

---

Here, each record is paired with measured CC50 data.
PROTOCOL_DETAILS: Cytotoxicity assay (Calcein-AM uptake)
Assay type: cell-based
PARTICULARS: human, T-cell lymphoblasts (PHA-expanded PBMC), overnight incubation, Calcein-AM viability

compound="O=C1C=C(c2cccc3ccccc23)c2ccccc2C1=O [Example 12, [1,1′]Binaphthalenyl-3,4-dione]" measured_attribute=CC50 test_value="> 30 µM"
compound="Cn1cc(C2=CC(=O)C(=O)c3ccccc32)c2ccccc21 [Example 7]" measured_attribute=CC50 test_value="> 30 µM"
compound="O=C1C=C(c2cccc([N+](=O)[O-])c2)c2ccccc2C1=O [Example 14, 4-(3-Nitro-phenyl)-[1,2]naphthoquinone]" measured_attribute=CC50 test_value="4 µM"
compound="COC(=O)c1cccc2c1C=CC(=O)C2=O [Example 16]" measured_attribute=CC50 test_value="> 30 µM"

*Q* Write down CC50 measured for item O=C1C=C(c2c(-c3ccccc3)[nH]c3ccccc23)c2ccccc2C1=O [Example 8]
*A* 16 µM

*Q* Report CC50, nothing else, for this compound: O=C1C=Cc2ccc(O)cc2C1=O [Example 18, 7-Hydroxy-[1,2]naphthoquinone]
*A* > 30 µM

*Q* Fill in CC50 for record O=C1C=Cc2cc(C(=O)c3ccccc3)ccc2C1=O [Example 15, 6-Benzoyl-[1,2]naphthoquinone]
*A* > 30 µM

*Q* Kindly indicate its recorded CC50. Item: CCOC1=CC(=O)C(=O)c2ccccc21 [Example 2, 4-Ethoxy-[1,2]naphthoquinone]
*A* 30 µM

---

PROTOCOL_DETAILS: Cytotoxicity assay (Calcein-AM uptake)
Format: cell-based
PARTICULARS: human, T-cell lymphoblasts (PHA-expanded PBMC), overnight incubation, Calcein-AM viability
MEASURED_ATTRIBUTE: CC50

molecule="O=C1C=C(Cl)c2ccccc2C1=O [Example 5, 4-Chloro-[1,2]naphthoquinone]" measured_attribute=CC50 test_value="> 30 µM"

*Q* Give me measured CC50, please, for this molecule: O=C1C=C(c2ccccc2Cl)c2ccccc2C1=O [Example 9, 4-(2-Chloro-phenyl)-[1,2]naphthoquinone]
*A* 124 µM

*Q* Indicate the recorded CC50 value for this molecule: COC(=O)c1ccc2c(c1)C=CC(=O)C2=O [Example 17]
*A* > 30 µM

*Q* Output measured CC50 for this item: C=CCOC1=CC(=O)C(=O)c2ccccc21 [Example 4, 4-Allyloxy-[1,2]naphthoquinone]
*A* > 30 µM

*Q* Please look at this molecule and report its CC50: O=C1C=C(Br)c2ccccc2C1=O [Example 6, 4-Bromo-[1,2]naphthoquinone]
*A* > 30 µM

---

PROTOCOL_DETAILS: Cytotoxicity assay (Calcein-AM uptake)
Format: cell-based
PARTICULARS: human, T-cell lymphoblasts (PHA-expanded PBMC), overnight incubation, Calcein-AM viability
MEASURED_ATTRIBUTE: CC50

*Q* Please indicate CC50 recorded for O=C1C=C(c2ccc(Br)cc2)c2ccccc2C1=O [Example 10, 4-(4-Bromo-phenyl)-[1,2]naphthoquinone]
*A* 3 µM

---

TARGET_UNDER_TEST: CD45 (Homo sapiens, UniProt P08575)
Construct: incubating the cytosolic portion of CD45 with the compounds and p-nitrophenyl phosphate (pNPP); purchased BIOMOL (Plymouth Meeting, Pa.)
PROTOCOL_DETAILS: Phosphatase assay using pNPP as substrate
Type: biochemical
PARTICULARS: pH 7.0
Documented log10 of IC50 across a set of compounds
Please keep in mind that the values are log10 of IC50 expressed in µM.

compound=COC(=O)c1cccc2c1C=CC(=O)C2=O test_value=1.04
compound="O=C1C=C(c2ccccc2Cl)c2ccccc2C1=O [Example 9, 4-(2-Chloro-phenyl)-[1,2]naphthoquinone]" test_value=0.90
compound="COC1=CC(=O)C(=O)c2ccccc21 [Example 3, 4-Methoxy-[1,2]naphthoquinone]" test_value=0.08

*Q* Find the measured log10 of IC50 of O=C1C=Cc2ccccc2C1=O [Example 1, [1,2]-Naphthoquinone] and report it.
*A* 0.48

*Q* Determine its reported log10 of IC50: O=C1C=C(c2ccc(Br)cc2)c2ccccc2C1=O [Example 10, 4-(4-Bromo-phenyl)-[1,2]naphthoquinone]
*A* 0.89

*Q* Identify the reported log10 of IC50 for the following entry. O=C1C=C(c2cccc3ccccc23)c2ccccc2C1=O [Example 12, [1,1′]Binaphthalenyl-3,4-dione]
*A* 1.35

*Q* Retrieve log10 of IC50 measured for O=C1C=C(c2cc(Cl)cc(Cl)c2)c2ccccc2C1=O and print it.
*A* 0.74

*Q* Input O=C1C=C(c2c(-c3ccccc3)[nH]c3ccccc23)c2ccccc2C1=O , output reported log10 of IC50.
*A* 0.46

*Q* Given O=C1C=C(Br)c2ccccc2C1=O [Example 6, 4-Bromo-[1,2]naphthoquinone] , respond with its log10 of IC50.
*A* 0.94

*Q* // fetch log10 of IC50 given entry O=C1C=Cc2ccc(O)cc2C1=O [Example 18, 7-Hydroxy-[1,2]naphthoquinone]
*A* 0.69

*Q* Look up log10 of IC50 of Cn1cc(C2=CC(=O)C(=O)c3ccccc32)c2ccccc21 and report it.
*A* 0.70

*Q* Let me know recorded log10 of IC50 for O=C1C=Cc2cc(C(=O)c3ccccc3)ccc2C1=O [Example 15, 6-Benzoyl-[1,2]naphthoquinone] , thanks.
*A* 1.34

*Q* Retrieve log10 of IC50 measured for O=C1C=C(c2cccc([N+](=O)[O-])c2)c2ccccc2C1=O [Example 14, 4-(3-Nitro-phenyl)-[1,2]naphthoquinone] and print it.
*A* 0.90

*Q* Identify measured log10 of IC50 associated with O=C1C=C(Cl)c2ccccc2C1=O [Example 5, 4-Chloro-[1,2]naphthoquinone]
*A* 1.00

*Q* Look up and report measured log10 of IC50 for this entry: CCOC1=CC(=O)C(=O)c2ccccc21 [Example 2, 4-Ethoxy-[1,2]naphthoquinone]
*A* 0.30

*Q* Read the entry O=C1C=C(c2ccccc2)c2ccccc2C1=O [Example 11, 4-Phenyl-[1,2]naphthoquinone] and write its reported log10 of IC50.
*A* 0.70

*Q* Please indicate log10 of IC50 recorded for COC(=O)c1ccc2c(c1)C=CC(=O)C2=O
*A* 0.85

*Q* Tell me measured log10 of IC50 for C=CCOC1=CC(=O)C(=O)c2ccccc21 [Example 4, 4-Allyloxy-[1,2]naphthoquinone] please.
*A* 0.08

---

TARGET_UNDER_TEST: CD45 (Homo sapiens, UniProt P08575)
Construct: incubating the cytosolic portion of CD45 with the compounds and p-nitrophenyl phosphate (pNPP); purchased BIOMOL (Plymouth Meeting, Pa.)
Sequence (P08575 599-1306 limits assumed): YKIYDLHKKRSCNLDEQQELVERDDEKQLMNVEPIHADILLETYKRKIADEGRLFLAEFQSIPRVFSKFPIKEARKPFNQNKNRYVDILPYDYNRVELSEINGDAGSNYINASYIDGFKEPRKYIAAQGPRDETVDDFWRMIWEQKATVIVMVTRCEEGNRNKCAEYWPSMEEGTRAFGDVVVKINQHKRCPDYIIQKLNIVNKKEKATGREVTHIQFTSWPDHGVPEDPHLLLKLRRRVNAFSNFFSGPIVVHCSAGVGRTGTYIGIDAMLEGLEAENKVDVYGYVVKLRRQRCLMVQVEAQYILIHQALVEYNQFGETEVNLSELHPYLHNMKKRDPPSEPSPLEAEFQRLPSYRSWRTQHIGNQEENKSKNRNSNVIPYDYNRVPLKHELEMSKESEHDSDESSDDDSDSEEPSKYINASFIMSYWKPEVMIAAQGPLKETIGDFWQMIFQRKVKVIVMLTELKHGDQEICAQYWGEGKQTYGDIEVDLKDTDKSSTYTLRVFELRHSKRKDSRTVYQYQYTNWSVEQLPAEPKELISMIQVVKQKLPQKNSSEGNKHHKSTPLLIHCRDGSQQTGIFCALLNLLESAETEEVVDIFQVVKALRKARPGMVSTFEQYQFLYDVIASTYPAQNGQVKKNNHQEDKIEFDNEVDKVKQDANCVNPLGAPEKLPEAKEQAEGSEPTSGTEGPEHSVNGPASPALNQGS
PROTOCOL_DETAILS: Phosphatase assay using lck 10-mer as substrate
Format: biochemical
PARTICULARS: lck carboxy-terminal peptide TEGQpYQPQP substrate, pH 7.2, 5% DMSO, read-out: Ick IC50
pIC50: −log10 of the molar value.
MEASURED_ATTRIBUTE: pIC50

Recorded results for 5 compounds are shown here.
compound="O=C1C=Cc2ccccc2C1=O [Example 1, [1,2]-Naphthoquinone]" test_value="< 4.52"
compound="O=C1C=C(c2ccccc2Cl)c2ccccc2C1=O [Example 9, 4-(2-Chloro-phenyl)-[1,2]naphthoquinone]" test_value="< 4.52"
compound="O=C1C=C(c2cccc3ccccc23)c2ccccc2C1=O [Example 12, [1,1′]Binaphthalenyl-3,4-dione]" test_value="< 4.52"
compound="O=C1C=C(c2ccc(Br)cc2)c2ccccc2C1=O [Example 10, 4-(4-Bromo-phenyl)-[1,2]naphthoquinone]" test_value="< 4.52"
compound=O=C1C=C(c2c(-c3ccccc3)[nH]c3ccccc23)c2ccccc2C1=O test_value=4.70

API: the following record is the query input.
*Q* Identify measured pIC50 obtained with CD45 (Homo sapiens, UniProt P08575) for Cn1cc(C2=CC(=O)C(=O)c3ccccc32)c2ccccc21 .
*A* 4.72
